Read-out: MicroRNA 122 (MIR122), gene 406906
Assay: LTEA_HepaRG_MIR122: Life Technologies and Expression Analysis (LTEA) Assay for MicroRNA 122 (MIR122) using HepaRG (AID 2283516); also: the transcript read is the microRNA miR-122
Conditions: mRNA level, 48 h; actives raise or lower the signal
Experimental: LTEA_HepaRG is a cell based, multiplexed-readout assay that uses HepaRG, a human liver cell line, with measurements taken at 48 hours after chemical dosing on a 96-well plate.LTEA_HepaRG_MIR122 is one of 102 assay component(s) measured in the LTEA HepaRG cell culture assay. It is a marker of MicroRNA.Data from the assay component LTEA_HepaRG_MIR122 was analyzed into 1 endpoint. […]
Active and inactive are the calls of the source. The calls were made as follows: active = hit-call score of the fitted dose curve at least 0.9, where 1 is the maximum; inactive = score below 0.9.
Labels: label 1 = active, label 0 = inactive

1. CC(=O)O	label 0
2. C=CCc1ccc(OC)c(OC)c1	label 0
3. COc1ccc(OC(F)(F)F)cc1CN[C@H]1CCCN[C@H]1c1ccccc1	label 0
4. O=C(Oc1ccccc1)c1cccc(C(=O)Oc2ccccc2)c1	label 0
5. CN(C)C(=O)NC1(c2ccccc2)CCN(CC[C@@]2(c3ccc(F)c(F)c3)CN(C(=O)c3ccccc3)CCO2)CC1	label 0
6. CC(=O)[C@@]1(O)CC[C@H]2[C@@H]3CCC4=CC(=O)CC[C@]4(C)[C@H]3CC[C@@]21C	label 0
7. Cn1cnc2c1c(=O)[nH]c(=O)n2C	label 0
8. CCOCCOCCO	label 0
9. Cc1cn([C@H]2C=C[C@@H](CO)O2)c(=O)[nH]c1=O	label 0
10. Nc1nc(=S)c2[nH]cnc2[nH]1	label 1
11. Oc1ccc(O)cc1	label 0
12. c1ccc2occc2c1	label 0
13. CCc1cc(C2=C(C(=O)O)N(c3ccccc3C(F)(F)F)S(=O)(=O)c3ccccc32)cc2c1OCO2	label 0
14. O=Cc1ccccc1C=O	label 0
15. Cc1ccc(-c2cc(C(F)(F)F)nn2-c2ccc(S(N)(=O)=O)cc2)cc1	label 0
16. CCc1nc(N)nc(N)c1-c1ccc(Cl)cc1	label 1
17. CCCCCCCCCCCCCCCCO	label 0
18. O=C(O)CC(O)(CC(=O)O)C(=O)O	label 0
19. CC(=O)CC(c1ccccc1)c1c(O)c2ccccc2oc1=O (stereo not given)	label 0
20. CSc1ccc(Oc2ccc(S(N)(=O)=O)cc2CN(C)C)cc1C	label 0

###

test: ATG_CMV_CIS: Attagene CIS-FACTORIAL HepG2 Assay for human CMV (Internal Marker) (AID 2282928); details: HepG2 CMV promoter reporter, transcription factor profiling; actives raise or lower the signal;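 also: endpoint acts as a background internal control marker rather than a target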
The source made the active and inactive calls. How the source made its calls: active means hit-call score of the fitted dose curve at least 0.9, where 1 is the maximum; inactive means score below 0.9.
Labels: class 1 (active), class 0 (inactive)

1. O=C(Oc1ccccc1)c1cccc(C(=O)Oc2ccccc2)c1	class 0
2. O=C(O)c1cccnc1	class 0
3. O=C1NC(=O)C(c2ccccc2)(c2ccccc2)N1	class 0
4. O=C1OC(c2ccc(O)cc2)(c2ccc(O)cc2)c2ccccc21	class 1
5. CN(C)C(=O)NC1(c2ccccc2)CCN(CCC[C@]2(c3ccc(Cl)c(Cl)c3)CCCN(C(=O)c3ccccc3)C2)CC1	class 0
6. CCCCCCC(CCCCCCCCCCC(=O)OCC(COC(C)=O)OC(C)=O)OC(C)=O (configuration not stated)	class 1
7. COc1ccc(C(=O)Nc2nc3ccccc3c(NCc3ccccc3)c2C#N)cc1	class 1
8. Cc1cc(SC2=C(O)C[C@@](CCc3ccc(N)cc3)(C(C)C)OC2=O)c(C(C)(C)C)cc1CO	class 0
9. S=c1[nH]c2ccccc2s1	class 1
10. CN(C)CCCN1c2ccccc2Sc2ccc(Cl)cc21	class 0
11. O=C1c2c(O)cccc2Cc2cccc(O)c21	class 0
12. CC(C)COC(=O)CCCCC(=O)OCC(C)C	class 0
13. CCCCc1nc2cccnc2n1Cc1ccc(-c2ccccc2-c2nnn[nH]2)cc1	class 0
14. CCCCOC(=O)CCCCC(=O)OCCCC	class 1
15. CC(=O)CC(c1ccccc1)c1c(O)c2ccccc2oc1=O (configuration not stated)	class 0
16. CC(=O)OCC(COC(C)=O)OC(C)=O	class 0
17. Nc1nc(Cl)nc2c1ncn2[C@H]1C[C@H](O)[C@@H](CO)O1	class 1

###

Read-out: Signal transducer and activator of transcription 3 (Homo sapiens) (UniProt P40763)
Sequence (P40763 whole entry, looked up): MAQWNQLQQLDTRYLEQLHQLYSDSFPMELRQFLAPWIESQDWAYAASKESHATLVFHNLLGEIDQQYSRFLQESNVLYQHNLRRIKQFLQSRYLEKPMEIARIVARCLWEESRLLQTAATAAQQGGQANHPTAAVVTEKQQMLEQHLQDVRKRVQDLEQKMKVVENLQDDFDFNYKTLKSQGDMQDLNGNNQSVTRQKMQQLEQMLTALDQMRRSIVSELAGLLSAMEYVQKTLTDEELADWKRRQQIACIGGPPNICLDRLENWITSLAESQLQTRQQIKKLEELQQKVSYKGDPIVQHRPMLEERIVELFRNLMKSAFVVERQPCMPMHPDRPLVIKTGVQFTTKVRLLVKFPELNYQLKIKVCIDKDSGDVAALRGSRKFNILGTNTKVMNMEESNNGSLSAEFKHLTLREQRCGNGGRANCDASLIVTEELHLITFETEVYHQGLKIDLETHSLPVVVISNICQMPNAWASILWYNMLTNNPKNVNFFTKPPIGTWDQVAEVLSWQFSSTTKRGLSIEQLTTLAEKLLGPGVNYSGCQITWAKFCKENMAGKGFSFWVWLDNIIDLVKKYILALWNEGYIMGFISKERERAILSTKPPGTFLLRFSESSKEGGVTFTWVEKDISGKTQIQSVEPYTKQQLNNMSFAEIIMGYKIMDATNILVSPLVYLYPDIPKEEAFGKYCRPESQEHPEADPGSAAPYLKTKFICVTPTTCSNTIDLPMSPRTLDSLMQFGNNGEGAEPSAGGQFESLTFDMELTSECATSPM
Experiment: LTEA_HepaRG_STAT3: Life Technologies and Expression Analysis (LTEA) Assay for Signal transducer and activator of transcription (STAT3) using HepaRG (AID 2283529)
Settings: mRNA level, 48 h; actives raise or lower the signal
Protocol: LTEA_HepaRG is a cell based, multiplexed-readout assay that uses HepaRG, a human liver cell line, with measurements taken at 48 hours after chemical dosing on a 96-well plate.LTEA_HepaRG_STAT3 is one of 102 assay component(s) measured in the LTEA HepaRG cell culture assay. It is a marker of Cell proliferation, survival, death.Data from the assay component LTEA_HepaRG_STAT3 was analyzed into 1 endpoint. […]
Activity calls are given as the source filed them. Rule for the calls: active = hit-call score of the fitted dose curve at least 0.9, where 1 is the maximum; inactive = score below 0.9.
Labels: active, inactive

1) Cc1c(C)c2c(c(C)c1O)CCC(C)(COc1ccc(CC3SC(=O)NC3=O)cc1)O2 (configuration not stated)	inactive
2) CCN(CC)CCOc1ccc(C(=C(Cl)c2ccccc2)c2ccccc2)cc1	active
3) O=C(NS(=O)(=O)/C=C/c1cccs1)c1ccc(F)cc1Br	inactive
4) COC(=O)CCC(=O)OC	inactive
5) CC(=O)CC(c1ccccc1)c1c(O)c2ccccc2oc1=O (configuration not stated)	inactive
6) CCCCc1nc2cccnc2n1Cc1ccc(-c2ccccc2-c2nnn[nH]2)cc1	inactive
7) NC=O	inactive

###

assay: ATG_SREBP_CIS: Attagene CIS-FACTORIAL HepG2 Assay for human Sterol Regulatory Element Binding (SREBP) (AID 2282962); conditions: HepG2 Attagene cis-factorial SREBP reporter, mRNA; actives raise or lower the signal
The source made the active and inactive calls. How the source made its calls: active means hit-call score of the fitted dose curve at least 0.9, where 1 is the maximum; inactive means score below 0.9.
Labels: active, inactive

1. O=[Si]=O	inactive
2. CC(=O)S[C@H](C(=O)N[C@H]1Cc2ccccc2[C@H]2CCC[C@@H](C(=O)O)N2C1=O)C(C)C	inactive
3. COC(=O)[C@H]1[C@H]2C[C@@H]3c4[nH]c5cc(OC)ccc5c4CCN3C[C@H]2C[C@@H](OC(=O)c2cc(OC)c(OC)c(OC)c2)[C@@H]1OC	active
4. CC(=O)OCC(COC(C)=O)OC(C)=O	inactive
5. S=c1[nH]c2ccccc2s1	active
6. CCCCOC(=O)CCCCC(=O)OCCCC	inactive
7. O=C1OC(c2ccc(O)cc2)(c2ccc(O)cc2)c2ccccc21	active
8. CCOCCOCCO	inactive
9. CO[C@@H]1COCC[C@@H]1N[C@@H]1CC[C@@](C(=O)N2CCc3ncc(C(F)(F)F)cc3C2)(C(C)C)C1	active
10. C=CCc1ccc(OC)c(OC)c1	inactive
11. CC1(C)C(=O)NC(=O)N1CO	active
12. NC(=Nc1ccccc1)Nc1ccccc1	inactive
13. O=C1CCCCC1	inactive
14. CN(C)C(=O)NC1(c2ccccc2)CCN(CCC[C@]2(c3ccc(Cl)c(Cl)c3)CCCN(C(=O)c3ccccc3)C2)CC1	active
15. COc1ccc(C(=O)Nc2nc3ccccc3c(NCc3ccccc3)c2C#N)cc1	active
16. CCCCCCCC(=O)OC	inactive

###

read-out: Interleukin 6 (IL6), IL6 (gene 3569); test: LTEA_HepaRG_IL6: Life Technologies and Expression Analysis (LTEA) Assay for Interleukin 6 (IL6) using HepaRG (AID 2283509); settings: mRNA level, 48 h; actives raise or lower the signal
Activity calls are given as the source filed them. The calls were made as follows: active = hit-call score of the fitted dose curve at least 0.9, where 1 is the maximum; inactive = score below 0.9.
quantity.measured: AC50

1) CC(=O)[C@@]1(O)CC[C@H]2[C@@H]3CCC4=CC(=O)CC[C@]4(C)[C@H]3CC[C@@]21C	inactive
2) Cc1occc(=O)c1O	inactive
3) O=C(Oc1ccccc1)c1cccc(C(=O)Oc2ccccc2)c1	inactive
4) CC(=O)S[C@H](C(=O)N[C@H]1Cc2ccccc2[C@H]2CCC[C@@H](C(=O)O)N2C1=O)C(C)C	inactive
5) CC(C)c1cccc(C(C)C)c1NC(=O)NS(=O)(=O)c1cc(C(C)(C)O)co1	inactive
6) CCCCCCC(CCCCCCCCCCC(=O)OCC(COC(C)=O)OC(C)=O)OC(C)=O (stereo not drawn)	inactive
7) C=CCc1ccc(OC)c(OC)c1	inactive
8) Cc1cn([C@H]2C=C[C@@H](CO)O2)c(=O)[nH]c1=O	inactive
9) Nc1nc(Cl)nc2c1ncn2[C@H]1C[C@H](O)[C@@H](CO)O1	16.1 µM (active)
10) O=C(NS(=O)(=O)/C=C/c1cccs1)c1ccc(F)cc1Br	inactive
11) N[C@@H](Cc1c[nH]c2ccccc12)C(=O)O	inactive
12) Cc1ccc(-c2cc(C(F)(F)F)nn2-c2ccc(S(N)(=O)=O)cc2)cc1	81.4 µM (active)
13) COc1ccc(C(=O)Nc2nc3ccccc3c(NCc3ccccc3)c2C#N)cc1	inactive
14) CCc1nc(N)nc(N)c1-c1ccc(Cl)cc1	inactive
15) CCCCc1nc2cccnc2n1Cc1ccc(-c2ccccc2-c2nnn[nH]2)cc1	inactive
16) CCC(C)N(C)C(=O)c1cc2ccccc2c(-c2ccccc2Cl)n1 (stereo not drawn)	inactive
17) CC1(C)C(=O)NC(=O)N1CO	inactive
18) OCC(O)CO	inactive
19) CCN(CC)CCOc1ccc(C(=C(Cl)c2ccccc2)c2ccccc2)cc1	81.8 µM (active)
20) CCc1cc(C2=C(C(=O)O)N(c3ccccc3C(F)(F)F)S(=O)(=O)c3ccccc32)cc2c1OCO2	78.5 µM (active)
21) CC(COCC(C)OC(=O)c1ccccc1)OC(=O)c1ccccc1 (stereo not drawn)	inactive
22) Cc1cc(Cc2ccc(N)c(C)c2)ccc1N	inactive
23) CCCCCCCCCCCCCCOS(=O)(=O)O	inactive
